- TGT: T1, HlgB
- T1 chain: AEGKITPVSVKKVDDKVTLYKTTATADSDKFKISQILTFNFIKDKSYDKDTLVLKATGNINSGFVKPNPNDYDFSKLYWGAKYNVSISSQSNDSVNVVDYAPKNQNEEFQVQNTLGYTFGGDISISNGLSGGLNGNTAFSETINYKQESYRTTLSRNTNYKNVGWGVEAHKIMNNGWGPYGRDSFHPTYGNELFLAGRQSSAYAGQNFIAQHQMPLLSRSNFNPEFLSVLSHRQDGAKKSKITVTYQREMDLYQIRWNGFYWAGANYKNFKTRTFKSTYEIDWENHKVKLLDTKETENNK
- PROTOCOL DETAILS: MSD solution equilibrium; Fab
Reported pKd is given for each of the following binders.
The value called pKd is obtained by taking minus log10 of the concentration in mol/L.

1. AB-28-6 (antibody, V domains shown) VH: QVQLQESGPGLVRPSETLSLTCAVSGYSISSGMGWGWIRQPPGKGLEWIGSIDQRGSTYYNPSLKSRVTISVDTSKNQFSLKLSSVTAADTAVYYCARDAGHAVDMDVWGKGTTVTVSS VL: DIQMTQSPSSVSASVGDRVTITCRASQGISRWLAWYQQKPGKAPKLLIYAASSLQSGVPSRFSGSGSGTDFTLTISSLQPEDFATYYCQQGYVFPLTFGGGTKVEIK: 11.60
2. AB-28-11 (antibody, V domains shown) VH: QVQLQESGPGLVKPSETLSLTCAVSGYSISSGMGWDWIRQPPGKGLEWIGSIDQRGSTYYNPSLEGRVTISVDTSKNQFSLKLSSVTAADTAVYYCARDAGHGVDMDVWGKGTTVTVSS VL: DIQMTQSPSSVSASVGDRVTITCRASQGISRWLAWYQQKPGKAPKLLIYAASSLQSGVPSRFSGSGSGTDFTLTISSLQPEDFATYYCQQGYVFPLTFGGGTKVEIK: 11.52
3. AB-28-9 (antibody, V domains shown) VH: EVQLQESGPGLVRPSETLSLTCAVSGYSISSGMGWGWIRQPPGKGLEWIGSIDQRGSTYYNPSLKSRVTISVDTSKNQFSLKLSSVTAADTAVYYCARDAGHAVDMDVWGKGTTVTVSS VL: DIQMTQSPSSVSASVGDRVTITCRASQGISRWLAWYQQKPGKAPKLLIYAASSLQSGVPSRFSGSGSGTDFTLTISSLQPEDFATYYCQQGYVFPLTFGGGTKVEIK: 11.30
4. AB-28-4 (antibody, V domains shown) VH: QVQLQESGPGLVKPSETLSLTCAVSGYPISSGMGWGWIRQPPGKGLEWIGRIDQRGSTYYNPSLKSRATISVDTSKNQFSLKLSSVTAADTAVYYCARDAGHGVDMDVWGKGTTVTVSS VL: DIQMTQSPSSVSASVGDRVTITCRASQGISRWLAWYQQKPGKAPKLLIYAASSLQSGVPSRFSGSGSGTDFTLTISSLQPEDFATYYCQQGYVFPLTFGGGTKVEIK: 9.85
5. AB-28-13 (antibody, V domains shown) VH: QVQLQESGPGLVKPSETLSLTCAVSGYSISSGMGWDWIRQPPGKGLEWIGSIDQRGSTYYNPSLEGRATISVDTSKNQFSLKLSSVTAADTAVYYCARDAGHGVDMDVWGKGTTVTVSS VL: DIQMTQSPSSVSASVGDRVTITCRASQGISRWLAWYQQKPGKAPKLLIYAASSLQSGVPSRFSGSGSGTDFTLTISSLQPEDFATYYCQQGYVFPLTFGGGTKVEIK: 11.52
6. AB-28-10 (antibody, V domains shown) VH: QVQLQESGPGLVKPSETLSLTCAVSGYSISSGMGWGWIRQPPGKGLEWIGSIDQRGSTYYNPSLKSRVTISVDTSKNQFSLKLSSVTAADTAVYYCARDAGHAVDMDVWGKGTTVTVSS VL: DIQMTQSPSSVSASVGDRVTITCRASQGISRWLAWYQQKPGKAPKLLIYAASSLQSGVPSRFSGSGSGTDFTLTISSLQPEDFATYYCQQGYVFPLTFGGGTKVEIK: 11.22
7. AB-28-8 (antibody, V domains shown) VH: QVQLQESGPGLVKPSETLSLTCAVSGYSISSGMGWDWIRQPPGKGLEWIGSIDQRGSTYYNPPLESRVTISVDTSKNQFSLKLSSVTAADTAVYYCARDAGHGVDMDVWGKGTTVTVSS VL: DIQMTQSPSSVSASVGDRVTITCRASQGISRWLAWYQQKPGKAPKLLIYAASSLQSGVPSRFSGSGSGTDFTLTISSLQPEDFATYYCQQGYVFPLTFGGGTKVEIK: 11.70
8. AB-28 (antibody, V domains shown) VH: QVQLQESGPGLVKPSETLSLTCAVSGYSISSGMGWGWIRQPPGKGLEWIGSIDQRGSTYYNPSLKSRVTISVDTSKNQFSLKLSSVTAADTAVYYCARDAGHGVDMDVWGKGTTVTVSS VL: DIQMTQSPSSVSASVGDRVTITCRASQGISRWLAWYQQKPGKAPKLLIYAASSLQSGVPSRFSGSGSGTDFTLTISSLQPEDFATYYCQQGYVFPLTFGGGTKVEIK: 11.30

Then there is this binder:
Problem: Returns the measured pKd for the input binder. Input: AB-28-5 (antibody, V domains shown) VH: QVQLQESGPGLVKPSETLSLTCAVSGYSISSGMGWGWIRQPPGKGLEWIGRVDQRGSTYYNPSLKSRVTISVDTSKNQFSLKLSSVTAADTAVYYCARDAGHGVDMDVWGKGTTVTVSS VL: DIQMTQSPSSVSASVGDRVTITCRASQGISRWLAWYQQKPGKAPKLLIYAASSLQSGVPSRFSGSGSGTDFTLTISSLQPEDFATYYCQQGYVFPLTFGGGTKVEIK
Result: 9.80

Cited source: patent US20180179267A1
